# systemTested: Cytochrome P450 2C19 (Homo sapiens)
# protocolNotes: qHTS for inhibitors of CYP2C19 against the NCATS DSHEA and TCM libraries (AID 1919974);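 further: luminescence from luciferin released by CYP2C19 oxidation of a pro-luciferin substrate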
# conditionContext: CYP2C19 enzyme inhibition, luminescence qHTS; series mostly up to 34.1 µM
Inconclusive results are not listed. Calls of active or inactive are those of the source. The call rests on the fitted dose curve; in most records, active means well fitted inhibition curve with a large enough effect; inconclusive means small, poorly fitted or top-dose-only effect; inactive means no such curve, though single readings can be large or run the other way.
Choose the fitting class; nothing outside true = active, false = inactive is accepted.

# example entries with known answers
C=C1CC[C@H]2C[C@@H]1C2(C)C | false
O=c1c(O[C@@H]2O[C@H](CO)[C@H](O)[C@H](O)[C@H]2O)c(-c2ccc(O)c(O)c2)oc2cc(O)cc(O)c12 | true
COc1ccc(C(=O)O)cc1 | false

Problem: Hi, sorry to bother you, what did the test record for "CCCCC/C=C/C/C=C/CCCCCCCC(=O)O" ?
Result: true

Problem: Hi, sorry to bother you, what did the test record for O=C(O)CC(O)(C(=O)O)C(O)C(=O)O (centres undefined) ?
Result: false

Problem: Hi, sorry to bother you, what did the test record for "O=C(O)[C@H]1O[C@@H](Oc2c(-c3ccc(O)c(O)c3)oc3cc(O)cc(O)c3c2=O)[C@H](O)[C@@H](O)[C@@H]1O" ?
Result: true

====

# protocolNotes: Cell Viability - LYMP2-008 (AID 980);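 further: cells exposed to compound for 24 h at 37 °C; nearly all actives have a fitted effect of over 60% in size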
# conditionContext: LYMP2-008 lymphoblastoid cell viability, qHTS; series mostly up to 92.2 µM
Results filed as inconclusive are left out. Activity calls are given as the source filed them. The call rests on the fitted dose curve; in most records, active means well fitted cell-killing curve with a large enough effect; inconclusive means small, poorly fitted or top-dose-only effect; inactive means flat fitted curve, though single readings scatter.
experimentalEndpoint: outcome

Use these answered entries as a reference point.
CCCCOCCO | inactive
O=C(O)c1ccccc1 | inactive
Cc1cccc([N+](=O)[O-])c1C | inactive
COc1ccc(/C=C/c2cc(OC)cc(=O)o2)cc1 | inactive

# batch: return outcome for each of the 2 compounds below
1. CN(C)C=O
2. CC(=O)OC/C=C(\C)CCC=C(C)C

Result:
1. inactive
2. inactive

# batch: return outcome for each of the 6 compounds below
1. CCCCCCCCO
2. Clc1cc(Cl)c(Cl)cc1Cl
3. O=S(=O)(O)c1ccccc1
4. C=CC(=C)CCC=C(C)C
5. C/C=C\c1ccc(OC)cc1
6. C=CCOC(=O)c1ccccc1C(=O)OCC=C

Result:
inactive
inactive
inactive
inactive
inactive
inactive

# batch: return outcome for each of the 2 compounds below
1. CC1=CC(C)(C)Nc2ccccc21
2. CCC(C)c1ccccc1O (stereo unspecified)

Result:
inactive
inactive

# batch: return outcome for each of the 6 compounds below
1. CC(C)=CCCC(C)CCO (stereo unspecified)
2. COC(=O)c1ccc(C)cc1
3. c1ccc2c(c1)c1cccc3ccc4cccc2c4c31
4. COc1ccc2nc(N)sc2c1
5. CC1(C)CC(N=C=O)CC(C)(CN=C=O)C1 (stereo unspecified)
6. CCO[Si](CCCN)(OCC)OCC

Result:
1: inactive; 2: inactive; 3: inactive; 4: inactive; 5: inactive; 6: inactive

Lab note: "O=C1CCc2ccccc2O1" gave outcome of inactive

====

# systemTested: Glucocorticoid receptor (Homo sapiens)
# protocolNotes: GR-GFP Redistribution (AID 450)
# conditionContext: U2OS GR-GFP nuclear translocation, laser cytometry, 2 h
Activity calls are given as the source filed them.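 How the source made its calls: active means compounds whose dose series gives a full or clear partial fitted curve of increased nuclear translocation; inconclusive means weak partial curve or effect only at the top dose; inactive means no dose-dependent translocation response.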
Choose the fitting class; nothing outside 1 = active, -1 = inactive is accepted.

# example entries with known answers
CN(C)c1ccc(-c2cncnc2NCCc2cnc[nH]2)cc1 | -1
CCCCN1CCC(COC(=O)c2cc(Cl)c(N)c3c2OCCO3)CC1 | -1
COc1ccccc1CNc1cc(-c2ccccc2CN(C)C)ncn1 | -1

Problem: Hi, sorry to bother you, what did the test record for COCCCNC(=O)C(C#N)c1nc2ccccc2nc1N1CCN(Cc2ccccc2)CC1 (stereo not drawn) ?
Result: -1

Problem: Hi, sorry to bother you, what did the test record for "CN1CCN(c2ncnc3ccc(-c4cccc(C#N)c4)cc23)CC1" ?
Result: -1

Problem: Hi, sorry to bother you, what did the test record for "CCNc1ncc2nc(CCc3ccccc3)c(=O)n(C3CC3)c2n1" ?
Result: -1

Problem: Hi, sorry to bother you, what did the test record for "c1ccc(CNc2nc(-c3cccnc3)nc3ccccc23)cc1" ?
Result: -1

Problem: Hi, sorry to bother you, what did the test record for "CCN(CC)c1ccc2cc(-c3nnc(-c4ccncc4)o3)c(=O)oc2c1" ?
Result: 1

Problem: Hi, sorry to bother you, what did the test record for "Cc1ccccc1-c1nc(Nc2ccncc2)c2ccccc2n1" ?
Result: -1

Problem: Hi, sorry to bother you, what did the test record for "CN(C)Cc1ccccc1-c1ccc2ncnc(N(C)C)c2c1" ?
Result: -1

Problem: Hi, sorry to bother you, what did the test record for "CN1CCN(c2ncc3nc(-c4cccc(C#N)c4)c(=O)n(CCc4ccccc4)c3n2)CC1" ?
Result: -1

Problem: Hi, sorry to bother you, what did the test record for "COc1ccc2[nH]cc(CCNc3ncnc4ccc(-c5ccoc5)cc34)c2c1" ?
Result: -1

Problem: Hi, sorry to bother you, what did the test record for "CCOc1ccc2nc3cc(N=Nc4ccc(N)nc4N)ccc3c(N)c2c1" ?
Result: -1

Problem: Hi, sorry to bother you, what did the test record for "CN1CCN(c2nc(-c3cccnc3)nc3ccccc23)CC1" ?
Result: -1

Problem: Hi, sorry to bother you, what did the test record for "CN(C)C(=O)c1ccc(-c2nc(Nc3ccccc3)c3ccccc3n2)cc1" ?
Result: -1

Problem: Hi, sorry to bother you, what did the test record for "Nc1nc(N)c(-c2cccc(C(F)(F)F)c2)c(Cc2cccc(C(F)(F)F)c2)n1" ?
Result: -1

Problem: Hi, sorry to bother you, what did the test record for "Cc1nc2cnc(N3CCN(C)CC3)nc2n(CCc2ccccc2)c1=O" ?
Result: -1

Problem: Hi, sorry to bother you, what did the test record for "CN(C)c1ncc2nc(CCc3ccccc3)c(=O)n(Cc3cccs3)c2n1" ?
Result: -1
